# target.or.test.system: full-length human GLP-1R with an N-terminal FLAG tag (human, UniProt P43220 24-463)
# procedure.details: cell-based or functional assay
Starred links: 1 amine or outer side, 2 acyl side, 3 side chain; linkers in the order of their positions; H or OH if unused. Non-standard residues stand in square brackets, D forms with d. Groups on a side chain read outwards from the residue. No end group written: not given here. *: point of attachment. 2OEGgEgE‑C18 diacid = O=C(O)CCCCCCCCCCCCCCCCC(=O)N[C@@H](CCC(=O)N[C@@H](CCC(=O)NCCOCCOCC(=O)NCCOCCOCC(=O)*)C(=O)O)C(=O)O; C20 diacid = O=C(O)CCCCCCCCCCCCCCCCCCC(=O)*; C18 diacid = O=C(O)CCCCCCCCCCCCCCCCC(=O)*; C17 diacid = O=C(O)CCCCCCCCCCCCCCCC(=O)*; γGlu = O=C(O)[C@H](CCC(=O)[*:2])N[*:1]; NMeY = CN[C@@H](Cc1ccc(O)cc1)C(=O)O; AEEA = NCCOCCOCC(=O)O; Aib = CC(C)(N)C(=O)O
Each entry below lists one item and its recorded Human GLP1R cAMP EC50, HEK293T value.
attribute.measured: Human GLP1R cAMP EC50, HEK293T

[[record]]
binder = "[NMeY][Aib]EGTFISDYSIALDR[Aib]AQ[Aib]DFVNWLLAK(2OEGgEgE‑C18 diacid)RPSSGAPPPS-NH2 [Compound No. 58]"
value_reported = "> 1000 nM"

[[record]]
binder = "[NMeY][Aib]EGTFISDYSI[Aib]LDR[Aib]AQ[Aib]K([AEEA-AEEA-γGlu-γGlu-C17 diacid])FVNWLLAQRPSSGAPPPS-NH2 [Compound No. 13]"
value_reported = "49 nM"

[[record]]
binder = "[NMeY][Aib]EGTFISDYSI[Aib]LDR[Aib]AQ[Aib]NFVNWLLAQK([AEEA-AEEA-γGlu-γGlu-C18 diacid])PSSGAPPPS-NH2 [Compound No. 27]"
value_reported = "87.1 nM"

[[record]]
binder = "[NMeY][Aib]EGTFISDYSIALDR[Aib]AQ[Aib]K([GGPAPAPgE-C18 diacid])FVNWLLAQSPG-OH [Compound No. 117]"
value_reported = "44.7 nM"

[[record]]
binder = "YXEGTFISDYSIAXDRXAQKDFVEWLLAQRG (N-methyl Tyr 1; Aib at 2,17; Lys(G5-C18 diacid) at 14; 'K1' at 20 and 'E1' at 24 as printed; C-terminal OH) [Compound No. 121]"
value_reported = "89.1 nM"

[[record]]
binder = "H-Y[Aib]EGTFISDYSIALDKAAQ[Aib]K([AEEA-AEEA-γGlu-γGlu-C17 diacid])FVEWLLAQRG-OH [Compound No. 133]"
value_reported = "58.9 nM"

[[record]]
binder = "[NMeY][Aib]EGTFISDYSI[Aib]K([AEEA-AEEA-γGlu-γGlu-C17 diacid])DR[Aib]AQ[Aib]NFVNWLLAQSPSSGAPPPS-NH2 [Compound No. 29]"
value_reported = "417 nM"

[[record]]
binder = "[NMeY][Aib]EGTFISDYSI[Aib]K([AEEA-AEEA-γGlu-γGlu-C17 diacid])DR[Aib]AQ[Aib]NFVNWLLAQRPSSGAPPPS-NH2 [Compound No. 14]"
value_reported = "172 nM"

[[record]]
binder = "[NMeY][Aib]EGTFISDYSIALDR[Aib]K([2OEGgEgE-C20 diacid])Q[Aib]NFVNWLLAQSPSSGAPPPS-NH2 [Compound No. 68]"
value_reported = "> 1000 nM"

[[record]]
binder = "[NMeY][Aib]EGTFISDYSIALDR[Aib]AQ[Aib]K(2OEGgEgE‑C18 diacid)FVNWLLAQSG-OH [Compound No. 42]"
value_reported = "5.5 nM"

[[record]]
binder = "Y[Aib]EGTFISDYSIALDKIAQQK([AEEA-AEEA-γGlu-γGlu-C17 diacid])FVEWLLAQRG-OH [Compound No. 142]"
value_reported = "158 nM"

[[record]]
binder = "[NMeY][Aib]EGTFISDYSI[Aib]LDR[Aib]AQ[Aib]K([2OEGgEgE-C20 diacid])FVNWLLAQKG-OH [Compound No. 65]"
value_reported = "40.7 nM"

[[record]]
binder = "YXEGTFISDYSIAXDRXAQXNFVNWLLAQSPSSGAPPPS (N-terminus H; Aib at 2,17,20; Lys(G5-C18 diacid) at 14; C-terminal OH) [Compound No. 138]"
value_reported = "2.04 nM"

[[record]]
binder = "YXEGTFISDYSIAXDRXAQXDFVNWLLAQRPSSG (N-methyl Tyr 1; Aib at 2,17,20; Lys(G5-C18 diacid) at 14; C-terminal OH) [Compound No. 70]"
value_reported = "43.7 nM"

[[record]]
binder = "Y[Aib]EGTFISDYSIALDKAAQ[Aib]K([AEEA-AEEA-γGlu-γGlu-C18 diacid])FVEWLLAQRG-OH [Compound No. 154]"
value_reported = "8.91 nM"

[[record]]
binder = "[NMeY][Aib]EGTFISDYSIALDR[Aib]K([AEEA-AEEA-γGlu-γGlu-C17 diacid])Q[Aib]NFVNWLLAQSPSSGAPPPS-NH2 [Compound No. 11]"
value_reported = "1000 nM"

